- System: Plasmodium falciparum calcium-dependent protein kinase 4 (CDPK4) (Plasmodium falciparum, UniProt Q8IBS5)
- Construct: 6-Histidine (N); made in house
- Sequence (Q8IBS5 whole entry): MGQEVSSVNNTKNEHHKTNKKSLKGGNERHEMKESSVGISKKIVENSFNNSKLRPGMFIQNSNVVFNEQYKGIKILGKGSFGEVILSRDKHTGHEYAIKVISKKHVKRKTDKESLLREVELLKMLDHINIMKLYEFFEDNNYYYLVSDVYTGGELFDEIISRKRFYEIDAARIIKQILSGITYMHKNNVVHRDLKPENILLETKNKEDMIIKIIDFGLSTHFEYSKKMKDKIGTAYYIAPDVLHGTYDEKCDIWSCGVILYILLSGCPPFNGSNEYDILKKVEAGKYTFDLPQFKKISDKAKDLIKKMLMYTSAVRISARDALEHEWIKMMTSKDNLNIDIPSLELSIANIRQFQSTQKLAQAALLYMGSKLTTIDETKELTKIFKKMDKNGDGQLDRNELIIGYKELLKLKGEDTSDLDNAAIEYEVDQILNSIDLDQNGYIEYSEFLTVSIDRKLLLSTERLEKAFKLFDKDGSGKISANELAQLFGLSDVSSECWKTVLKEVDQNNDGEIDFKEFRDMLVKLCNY
- Test Protocol: CDPK4 Kinase-Glo ATP-consumption screen and dose-response
- Format: biochemical
- Conditions Used: hits below 1 uM
IC50 values, listed per item
Measurement Label: IC50 (nM)

[[record]]
molecule = "CCn1c(-c2nonc2N)nc2c(-c3cccc(Cl)c3)ncc(OCCCNCCc3c[nH]cn3)c21.O=C(O)C(F)(F)F"
experimental_value = 46

[[record]]
molecule = "CCn1c(-c2nonc2N)nc2c(-c3cc4ccccc4s3)ncc(C(=O)N3CCC(N)C3)c21.O=C(O)C(F)(F)F (stereo not shown)"
experimental_value = 89

[[record]]
molecule = "CCn1c(-c2nonc2N)nc2c(-c3cccc(NC(=O)NC45CC6CC(CC(C6)C4)C5)c3)ncc(OCCCN)c21.O=C(O)C(F)(F)F"
experimental_value = 158

[[record]]
molecule = "CCN(CC)CCCOc1ccc(Nc2nccc(-c3c(-c4cccc(NC(=O)c5c(F)cccc5F)c4)nn4ccccc34)n2)cc1F"
experimental_value = 86

[[record]]
molecule = "COc1cc(Nc2nccc(-c3c(-c4cccc(NC(=O)c5c(F)cccc5F)c4)nn4ncccc34)n2)cc(OC)c1OC"
experimental_value = 45

[[record]]
molecule = "CS(=O)(=O)Cc1ccc(Nc2nccc(-c3c(-c4cccc(C(=O)Nc5c(F)cccc5F)c4)nn4ccccc34)n2)cc1"
experimental_value = 65

[[record]]
molecule = "CC(c1cccc(Nc2nccc(-c3c(-c4cccc(NC(=O)c5c(F)cccc5F)c4)nn4ccccc34)n2)c1)S(C)(=O)=O (stereo not shown)"
experimental_value = 90

[[record]]
molecule = "CCn1c(-c2nonc2N)nc2c(-c3ccccc3)ncc(OCCCCNCCc3ncc[nH]3)c21.O=C(O)C(F)(F)F"
experimental_value = 43

[[record]]
molecule = "Cc1csc(-c2ncc(OC[C@@H](N)Cc3ccccc3)cc2-c2ccc3[nH]nc(C)c3c2)c1.O=C(O)C(F)(F)F"
experimental_value = 420

[[record]]
molecule = "NS(=O)(=O)c1cccc(N/C=C2\\C(=O)Nc3ccc(S(=O)(=O)Cc4c(Cl)cccc4Cl)cc32)c1"
experimental_value = 116

[[record]]
molecule = "Cc1cccc(Nc2nc(N[C@@H]3CCCNC3)nc3cc[nH]c(=O)c23)c1.O=C(O)C(F)(F)F"
experimental_value = 76

[[record]]
molecule = "Cc1[nH]c(/C=C2\\C(=O)Nc3ccc(S(=O)(=O)Cc4c(Cl)cccc4Cl)cc32)c(C)c1C(=O)N1CCC[C@@H]1CN1CCCC1"
experimental_value = 21

[[record]]
molecule = "Cc1cc(Nc2ncc(C#N)c(Nc3ccccc3C(N)=O)n2)ccc1N1CCN(C)CC1.Cl"
experimental_value = 89

[[record]]
molecule = "Cc1cccc(Nc2nc(NCCCCN)nc3cc[nH]c(=O)c23)c1.O=C(O)C(F)(F)F"
experimental_value = 166

[[record]]
molecule = "CCn1c(-c2nonc2N)nc2c(-c3cccc(NC(=O)Nc4ccc5c(c4)CCC5)c3)ncc(OCCCN)c21.O=C(O)C(F)(F)F"
experimental_value = 59

[[record]]
molecule = "Cl.NC[C@H](CC1CCCCC1)NC(=O)c1ccc(-c2ccnc3[nH]ccc23)s1"
experimental_value = 527

[[record]]
molecule = "CN1CCN(c2ccc(Nc3nccc(-c4c(-c5cccc(NC(=O)c6c(F)cccc6F)c5)nn5ccccc45)n3)cc2)CC1"
experimental_value = 75

[[record]]
molecule = "CS(=O)(=O)Cc1ccc(Nc2nccc(-c3c(-c4cccc(NC(=O)c5c(F)cccc5F)c4)nn4ccccc34)n2)cc1"
experimental_value = 52

[[record]]
molecule = "O=C(Nc1ccccc1)Nc1cccc(-c2nn3c(OCCN4CCCC4)cccc3c2-c2ccncc2)c1"
experimental_value = 775

[[record]]
molecule = "CCn1c(-c2nonc2N)nc2c(-c3cccc(Cl)c3)ncc(OCCCNCc3cnc(C)nc3N)c21.O=C(O)C(F)(F)F"
experimental_value = 145

[[record]]
molecule = "CCn1c(-c2nonc2N)nc2c(-c3cccc(NC(=O)Nc4ccccc4Cl)c3)ncc(OCCCN)c21.O=C(O)C(F)(F)F"
experimental_value = 138

[[record]]
molecule = "CS(=O)(=O)Cc1ccc(Nc2nccc(-c3c(-c4cccc(NC(=O)C5CCCCC5)c4)nn4ncccc34)n2)cc1"
experimental_value = 67

